target: T1, gp68_ECD_1 (1-201 aa) (HCMV strain AD169, UniProt P16739 24-201); assay: ELISA, coated supernatant
T1 construct: signal peptide 1-23 left out
parameter: binding result

binder | value
gp68.01 (antibody, V domains shown, mouse IgG1 hybridoma mAb; leader in entries) VH: EVKLLESGPELVKPGSSVKISCKASGYSFADHIILWVKQSHGKSLEWIGNINPYSGNTIYNLNFKGKATLTVDKSSSTAYMQLNSLTSEDSAVYYCARIEGYYSMDYWGQGTSVTVSS VL: DIVMTQTPLSLPVSLGDQASISCRSSQSIVHSNGNTYLEWYLQKPGQSPKVLIYKVSKRFSGVPDRFSGSGSGTDFTLKISRVEAEDMGVYYCFQGSHVPLTFGAGTKLELK | binds
gp68.02 (antibody, V domains shown, mouse IgG1 hybridoma mAb; leader in entries) VH: EVKLLQSGPELVKPGSSVKISCKASGYSFADHIILWVKQSHGKSLEWIGNINPYSGNTIYNLNFKGKATLTVDKSSSTAYMQLNSLTSEDSAVYYCARIEGYYSMDYWGQGTSVTVSS VL: DIVLTQTPLSLPVSLGDQASISCRSSQSIVHSNGNTYLEWYLQKPGQSPKVLIYKVSKRFSGVPDRFSGSGSGTDFTLKISRVEAEDMGVYYCFQGSHVPLTFGAGTKLELK | binds
